test system: Plasmodium gallinaceum; experiment: Antimalarial activity against sporozoite stage of Plasmodium gallinaceum infected in chick at 480 mg/kg; type: functional, organism-based; set-up: dose 480 mg/kg
Active and inactive are the calls of the source. No cut-off for these calls is given here.
assay-metric: Activity

The following compounds have reported results that may help.
| compound | assay-metric | measured-result |
| --- | --- | --- |
| CN1CCC(C2(C)OC2c2ccc(Cl)cc2)CC1.Cc1ccc(S(=O)(=O)O)cc1 (configuration not stated) | Activity | inactive |
| CCOC(C)(CC1CCNCC1)c1ccc(Cl)cc1 (configuration not stated) | Activity | inactive |
| CCC(CC1CCNCC1)(OC)c1ccc(Cl)cc1 (configuration not stated) | Activity | inactive |
| COC(CC1CCNCC1)c1ccc(Cl)cc1.Cl (configuration not stated) | Activity | inactive |
| COC(c1ccc(Cl)cc1)C(C)C1CCNCC1.Cl (configuration not stated) | Activity | inactive |
| CCOC(c1ccc(Cl)cc1)C(C)C1CCNCC1.O=C(O)CCC(=O)O (configuration not stated) | Activity | inactive |

Record CCOC(C)(Cc1ccc(Cl)cc1)C1CCNCC1.Cl (configuration not stated) has Plasmodium gallinaceum Activity equal to inactive
